These entries and their values trace back to patent US10336702B2.

target: Akt1 (Homo sapiens, UniProt P31749); construct: unspecified tag, removed (detagged) (cleaved yes); purchased SignalChem and Proteros (Akt1); Merck Millipore (PDK1) 14-452 (PDK1); none given for Akt1; assay: Akt activation assay (PDK1-mediated activation, LANCE Ultra crosstide TR-FRET), Akt1; assay type: biochemical; settings: read-out: Biological Assay 1 IC50 (nM) Akt1
Record form. Attribute: IC50. Fill in for each entry.

Example results:
CC(=O)N(C)[C@H]1CC[C@H](CC(=O)Nc2cc(-c3ccsc3)c(-c3ccc([C@]4(N)C[C@H](F)C4)cc3)nn2)CC1: > 16000 nM
CC(=O)N[C@H]1CC[C@H](CC(=O)Nc2cnc(-c3ccc(C4(N)CCC4)cc3)c(-c3ccsc3C)c2)CC1: > 30000 nM

Provide IC50 for all items below, preserving their order.
1. Cc1nncn1[C@H]1CC[C@H](CC(=O)Nc2cnc(-c3ccc(C(C)(C)N)cc3)c(-c3ccccc3)c2)CC1
2. CC(=O)N[C@H]1CC[C@H](CC(=O)Nc2cnc(-c3ccc(C4(N)COC4)cc3)c(-c3ccccc3)c2)CC1
3. CC(C)(N)c1ccc(-c2ncc(NC(=O)C[C@H]3CC[C@H](NC(=O)C4CC4)CC3)cc2-c2ccccc2)cc1
4. CC(=O)N(C)[C@H]1CC[C@H](CC(=O)Nc2cc(-c3ccccn3)c(-c3ccc(C4(N)CCC4)cc3)cn2)CC1
5. N[C@]1(c2ccc(-c3nnc(NC(=O)C[C@H]4CC[C@H](N5CCOC5=O)CC4)cc3-c3ccsc3)cc2)C[C@@H](F)C1

> 30000 nM
> 30000 nM
> 36000 nM
> 30000 nM
> 30000 nM

###

Record form. Attribute: IC50. Fill in for each entry.
target: p-Akt3 in WM115 cells (Homo sapiens, UniProt Q9Y243); construct: SureFire assays to detect cellular p-Akt1, p-Akt2 and p-Akt3 levels in WM115 cells (Akt2/3) and LNCaP cells (Akt1); endogenous in cells; host or cells: WM115 (ECACC 91061232), insulin-stimulated; assay: Phospho-Akt cellular SureFire assay, p-Akt3 in WM115 cells; type: cell-based; settings: insulin stimulated, read-out: Biological Assay 2 IC50 (nM) Akt3 WM115
Sequence (Q9Y243 whole entry): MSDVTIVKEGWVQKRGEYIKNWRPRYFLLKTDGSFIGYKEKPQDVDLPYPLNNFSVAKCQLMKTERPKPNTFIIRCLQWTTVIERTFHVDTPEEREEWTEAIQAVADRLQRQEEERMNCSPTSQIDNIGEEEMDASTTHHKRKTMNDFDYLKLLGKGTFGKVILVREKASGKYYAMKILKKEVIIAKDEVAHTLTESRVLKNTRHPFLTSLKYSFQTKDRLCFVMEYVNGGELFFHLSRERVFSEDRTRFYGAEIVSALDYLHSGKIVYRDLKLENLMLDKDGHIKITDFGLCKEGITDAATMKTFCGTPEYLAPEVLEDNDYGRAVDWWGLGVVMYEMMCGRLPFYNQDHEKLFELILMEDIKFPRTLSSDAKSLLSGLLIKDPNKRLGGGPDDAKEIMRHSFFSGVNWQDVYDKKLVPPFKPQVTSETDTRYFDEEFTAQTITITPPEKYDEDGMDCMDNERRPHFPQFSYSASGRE
Give bare numbers, in nM.

Provide IC50 for all items below, preserving their order.
1. CC(C)(N)c1ccc(-c2ncc(NC(=O)C[C@H]3CC[C@H](N4CCOC4=O)CC3)cc2-c2ccccc2)cc1
2. CN(C(=O)C1CCC1)[C@H]1CC[C@H](CC(=O)Nc2cc(-c3ccccc3)c(-c3ccc(C4(N)CC4)cc3)nn2)CC1
3. COC(=O)N(C)[C@H]1CC[C@H](CC(=O)Nc2cc(-c3ccsc3)c(-c3ccc([C@]4(N)C[C@H](F)C4)cc3)nn2)CC1

1. 210
2. 200
3. 960

###

Record form. Attribute: IC50. Fill in for each entry.
molecular target: p-Akt1 in LNCaP cells (Homo sapiens); construct: SureFire assays to detect cellular p-Akt1, p-Akt2 and p-Akt3 levels in WM115 cells (Akt2/3) and LNCaP cells (Akt1); endogenous in cells; host or cells: LNCaP (ECACC 89110211); assay: Phospho-Akt cellular SureFire assay, p-Akt1 in LNCaP cells; format: cell-based; settings: read-out: Biological Assay 2 IC50 (nM) Akt1 LNCaP
Sequence (P31749 whole entry): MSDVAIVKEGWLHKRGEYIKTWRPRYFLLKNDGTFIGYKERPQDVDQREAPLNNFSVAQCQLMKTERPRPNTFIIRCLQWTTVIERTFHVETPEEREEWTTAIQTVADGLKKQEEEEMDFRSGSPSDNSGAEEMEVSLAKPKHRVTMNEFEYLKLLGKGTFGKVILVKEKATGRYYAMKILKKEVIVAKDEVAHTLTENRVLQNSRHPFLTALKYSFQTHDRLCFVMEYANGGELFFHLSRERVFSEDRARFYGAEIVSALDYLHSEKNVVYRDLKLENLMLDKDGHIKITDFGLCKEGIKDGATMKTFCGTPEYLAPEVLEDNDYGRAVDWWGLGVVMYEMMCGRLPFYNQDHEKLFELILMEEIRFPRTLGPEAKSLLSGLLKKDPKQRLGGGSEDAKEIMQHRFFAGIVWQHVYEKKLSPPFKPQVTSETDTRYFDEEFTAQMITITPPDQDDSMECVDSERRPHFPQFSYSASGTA

C[C@]1(O)C[C@@](N)(c2ccc(-c3nnc(NC(=O)C[C@H]4CC[C@H](N5CCOC5=O)CC4)nc3-c3ccccc3F)cc2)C1: > 30000 nM

Provide IC50 for all items below, preserving their order.
1. CC(=O)N(C(C)C)[C@H]1CC[C@H](CC(=O)Nc2cc(-c3ccccc3)c(-c3ccc([C@]4(N)C[C@](C)(O)C4)cc3)nn2)CC1
2. CN(C(=O)C1CCC1)[C@H]1CC[C@H](CC(=O)Nc2cc(-c3ccccc3)c(-c3ccc([C@]4(N)C[C@](C)(O)C4)cc3)cn2)CC1

1. 790 nM
2. 4300 nM
